- system: Glucocorticoid receptor (Homo sapiens) (UniProt P04150)
- Sequence (P04150 whole entry, looked up): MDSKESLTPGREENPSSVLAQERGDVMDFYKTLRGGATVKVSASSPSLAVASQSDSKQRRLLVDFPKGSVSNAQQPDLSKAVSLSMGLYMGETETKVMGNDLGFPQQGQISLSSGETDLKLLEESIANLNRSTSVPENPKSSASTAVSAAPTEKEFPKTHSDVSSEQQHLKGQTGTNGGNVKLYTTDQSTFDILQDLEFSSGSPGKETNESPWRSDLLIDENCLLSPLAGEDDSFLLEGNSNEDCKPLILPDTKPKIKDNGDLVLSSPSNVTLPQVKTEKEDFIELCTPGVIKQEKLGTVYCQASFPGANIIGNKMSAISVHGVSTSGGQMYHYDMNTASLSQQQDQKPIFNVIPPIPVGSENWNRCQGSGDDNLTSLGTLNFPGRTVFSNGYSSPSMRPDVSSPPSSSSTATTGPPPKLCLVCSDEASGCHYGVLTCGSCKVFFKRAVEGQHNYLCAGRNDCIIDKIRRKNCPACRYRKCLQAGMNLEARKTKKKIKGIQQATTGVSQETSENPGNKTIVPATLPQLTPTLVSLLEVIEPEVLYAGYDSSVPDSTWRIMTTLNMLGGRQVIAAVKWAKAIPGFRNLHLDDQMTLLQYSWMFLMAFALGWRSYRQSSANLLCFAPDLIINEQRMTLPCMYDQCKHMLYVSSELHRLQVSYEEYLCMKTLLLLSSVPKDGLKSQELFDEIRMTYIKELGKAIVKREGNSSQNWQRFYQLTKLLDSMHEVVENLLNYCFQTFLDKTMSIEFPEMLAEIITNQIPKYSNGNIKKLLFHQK
- assayRemarks: NVS_NR_hGR: NovaScreen (NVS) Nuclear Receptor Binding Assay for human Glucocorticoid Receptor (GR) (AID 2283363)
- Description: NVS_NR_hGR is a biochemical, single-readout assay that uses extracted gene-proteins in a cell-free assay. Measurements were taken 16 hours after chemical dosing in a 96-well plate.NVS_NR_hGR is one of one assay component(s) measured or calculated from the NVS_NR_hGR assay. […] This assay endpoint, NVS_NR_hGR, was analyzed in the positive analysis fitting direction relative to DMSO as the negative control and baseline of activity. […]
Inconclusive results are not listed. Active and inactive are the calls of the source. How the source made its calls: active means hit-call score of the fitted dose curve at least 0.9, where 1 is the maximum; inconclusive means response in the unintended direction; inactive means score below 0.9.
# output must be one of class 1 (active), class 0 (inactive)

Problem: State the result this test recorded for O=C1C=CC(=O)c2ccccc21 .
Result: class 1

Problem: Record: O=[N+]([O-])c1ccc(Cl)c([N+](=O)[O-])c1
Result: class 1

Problem: Query O=C1c2ccccc2C(=O)C1C(=O)C(c1ccccc1)c1ccc(Cl)cc1 (stereo unspecified) next
Result: class 1

Problem: Same for Cc1cc(C(C)(C)c2ccc(O)c(C)c2)ccc1O
Result: class 1

Problem: And then CC(C=O)Cc1ccc2c(c1)OCO2 (stereo unspecified) , what is it?
Result: class 0

Problem: How about this compound: O=c1oc2ccccc2c(O)c1C(CC(O)c1ccc(-c2ccc(Br)cc2)cc1)c1ccccc1 (stereo unspecified)
Result: class 1

----------
- system: Heat shock factor protein 1 (Homo sapiens) (UniProt Q00613)
- Sequence (Q00613 whole entry, looked up): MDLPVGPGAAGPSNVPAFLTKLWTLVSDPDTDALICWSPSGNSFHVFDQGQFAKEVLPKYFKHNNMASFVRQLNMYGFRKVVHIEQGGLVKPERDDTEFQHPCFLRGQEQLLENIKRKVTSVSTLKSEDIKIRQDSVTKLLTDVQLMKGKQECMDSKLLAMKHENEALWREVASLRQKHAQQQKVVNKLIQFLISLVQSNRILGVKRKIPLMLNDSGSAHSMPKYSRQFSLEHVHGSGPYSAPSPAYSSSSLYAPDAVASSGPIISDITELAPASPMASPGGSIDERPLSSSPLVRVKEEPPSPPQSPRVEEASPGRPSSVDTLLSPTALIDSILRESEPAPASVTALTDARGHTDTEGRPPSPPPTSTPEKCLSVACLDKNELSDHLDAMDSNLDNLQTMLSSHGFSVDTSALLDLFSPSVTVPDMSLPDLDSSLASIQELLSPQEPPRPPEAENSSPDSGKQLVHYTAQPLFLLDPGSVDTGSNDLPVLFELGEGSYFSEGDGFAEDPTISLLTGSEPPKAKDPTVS
- assayRemarks: ATG_HSE_CIS: Attagene CIS-FACTORIAL HepG2 Assay for human Heat Shock Transcription Factor 1 (HSE) (AID 2282953)
- measurementParameters: HepG2 HSE cis-reporter, Attagene RNA transcription; actives raise or lower the signal
Activity calls are given as the source filed them. How the source made its calls: active means hit-call score of the fitted dose curve at least 0.9, where 1 is the maximum; inactive means score below 0.9.
endpointLabel: AC50

* O=NN1CCOCC1 | inactive
* N#Cc1ccccc1N | inactive
* COCC(=O)N(c1c(C)cccc1C)[C@H](C)C(=O)OC | inactive
* Cc1ccc(OP(=O)(Oc2ccc(C)cc2C)Oc2ccc(C)cc2C)c(C)c1 | inactive
* O=S1OC[C@@H]2[C@H](CO1)[C@]1(Cl)C(Cl)=C(Cl)[C@@]2(Cl)C1(Cl)Cl (stereo partly drawn) | inactive

Problem: Request - read-out AC50 | tested on Heat shock factor protein 1 (Homo sapiens) (UniProt Q00613) | molecule CC[N+](CC)(CC)CC
Result: inactive

Problem: Next entry: O=C(O)c1cc(I)cc(I)c1I
Result: inactive

Problem: Same thing, different molecule: N#CCC#N
Result: inactive

Problem: Okay, and CNC(=O)CSP(=O)(OC)OC ?
Result: inactive

Problem: Item: O=C(CCl)Nc1ccccc1
Result: 49 µM (active)

Problem: What do we get for c1ccc2c(c1)Oc1ccccc1O2 ?
Result: inactive

----------
- system: human Retinoid X Receptor beta (RXRb), RXRB (gene 6257)
- assayRemarks: ATG_RXRb_TRANS: Attagene TRANS-FACTORIAL HepG2 Assay for human Retinoid X Receptor beta (RXRb) (AID 2283013)
Results filed as inconclusive are left out. The source made the active and inactive calls. Rule for the calls: active = hit-call score of the fitted dose curve at least 0.9, where 1 is the maximum; inconclusive = response in the unintended direction; inactive = score below 0.9.
Outcomes you can answer with include only these: 1.0 = active, 0.0 = inactive

Problem: Kindly provide the recorded test outcome for the following compound: CCOP(=S)(OCC)SCSc1cc(Cl)ccc1Cl
Result: 1.0

Problem: Then this compound: CN(N=O)c1ccc([N+](=O)[O-])cc1
Result: 0.0

Problem: Now try O=[N+]([O-])c1ccccc1O .
Result: 0.0

Problem: Repeat with Brc1ccc(Oc2c(Br)cc(Br)cc2Br)c(Br)c1
Result: 0.0

Problem: And then [Cl][Sn]([c]1ccccc1)([c]1ccccc1)[c]1ccccc1 , what is it?
Result: 1.0

Problem: Subsequent entry: CCCCCCCCCCBr
Result: 1.0

Problem: Same read-out for CC(=O)C(F)(F)C(F)(F)F ?
Result: 0.0
